# tested.system: UniProt:P50053
# assay.remarks: KHK Biochemical Assay (IC50), ADP-Glo, KHK-C
# recorded.conditions: ADP-Glo; average of at least two separate assays
readout.kind: IC50 (nM)

[A] C[C@H]1[C@H](O)CN1c1nc(-c2cc(F)c3c(c2)OC[C@@H]3NS(C)(=O)=O)c2c(n1)C(F)(F)CC2 (single isomer, unassigned)
[B] C[C@H]1CCN1c1nc2c(c(-c3ccc(CO)cc3)n1)CCC2
[C] C[C@H]1CCN1c1nc2c(c(-c3ccc4[nH]c(=O)n(C)c4c3)n1)CCC2
[D] C[C@H]1CCN1c1nc2c(c(-c3ccc4c(cnn4C(=O)CN)c3)n1)CCC2
Kindly provide a descending ordering of the above compounds based on their IC50. The reply should contain the labels ordered as requested. C, B, D, A
(C: 135 nM, B: 40.4 nM, D: 26.7 nM, A: 2.5 nM)

---

# tested.system: human KHK-A (Homo sapiens (Human), UniProt P50053)
# Sequence (P50053 other isoform, or with tags, fused parts or gaps): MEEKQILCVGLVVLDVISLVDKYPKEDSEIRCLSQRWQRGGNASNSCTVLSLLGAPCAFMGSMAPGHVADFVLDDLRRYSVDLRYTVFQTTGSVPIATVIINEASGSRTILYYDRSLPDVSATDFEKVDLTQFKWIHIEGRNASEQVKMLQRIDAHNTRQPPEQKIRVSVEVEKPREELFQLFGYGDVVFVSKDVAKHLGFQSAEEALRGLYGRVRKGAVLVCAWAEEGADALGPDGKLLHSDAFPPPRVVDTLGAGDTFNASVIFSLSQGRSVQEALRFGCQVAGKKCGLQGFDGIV
# assay.remarks: KHK Biochemical Assay (IC50), ADP-Glo, KHK-A
# recorded.conditions: ADP-Glo; average of at least two separate assays
pIC50: −log10 of the molar value.
readout.kind: pIC50

Reference set, count: 4
>>> observed_measurement("C[C@H]1CCN1c1nc2c(c(-c3cccnc3)n1)CCC2 [Example 15]")
6.83
>>> observed_measurement("C[C@H]1CCN1c1nc2c(c(-c3cccc(N)c3)n1)CCC2 [Example 71]")
6.97
>>> observed_measurement("COc1ccc(-c2nc(N3CC[C@@H]3C)nc3c2CCC3)cc1S(=N)(=O)C1CCOCC1 (some centres unmarked) [Example 840]")
8.11
>>> observed_measurement("C[C@H]1[C@@H](F)CN1c1nc2c(c(-c3ccc(C(N)=O)cc3)n1)CCC2 [Example 226]")
7.59

[A] C[C@H]1CCN1c1nc2c(c(-c3ccc4c(=O)[nH]ccc4c3)n1)CCC2 [Example 364]
[B] C[C@H]1CCN1c1nc2c(c(-c3ccccc3)n1)CCC2 [Example 331]
Given the listed records, identify the one among A and B with higher pIC50. // output: label of the selected item A
(A: 8.00, B: 6.59)

[P] C[C@H]1[C@H](O)CN1c1nc2c(c(-c3cccc(NS(C)(=O)=O)c3)n1)CCC2 [Example 43]
[Q] C[C@H]1CCN1c1nc2c(c(-c3cccc(-c4ccn[nH]4)c3)n1)CCC2 [Example 279]
Given the listed records, identify the one among P and Q with higher pIC50. // output: label of the selected item P
(P: 7.18, Q: 6.80)

[P] C[C@H]1CCN1c1nc2c(c(-c3ccc4ccc(=O)n(CCC(=O)O)c4c3)n1)CCC2 [Example 133]
[Q] N#CCC(N)c1ccc(-c2nc(N3CC[C@@H]3C(F)(F)F)nc3c2CCC3(F)F)cc1 (some centres unmarked) [Example 803]
[R] C[C@H]1CCN1c1nc2c(c(-c3ccc(-c4ccn[nH]4)cc3)n1)CCC2 [Example 103]
[S] C[C@H]1CCN1c1nc2c(c(-c3cccc(C4CC4C(=O)O)c3)n1)CCC2 (some centres unmarked) [Example 46]
[T] C[C@@H]1N(c2nc(-c3ccc4c(c3)OC[C@@]43COC(=O)N3)c3c(n2)C(F)(F)CC3)C[C@@]1(C)O [Example 829]
Sort (5 compounds) by pIC50: min first. The reply should contain the labels ordered as requested. R, P, T, S, Q
(R: 6.15, P: 6.63, T: 7.59, S: 8.00, Q: 9.10)

---

# assay.remarks: pKa analysis by capillary electrophoresis (pKa PRO Analyzer, co-solvent method)
# Type: physicochemical
# recorded.conditions: methanol/aqueous co-solvent buffers, co-solvent method (60% to 30% methanol buffers), pH range 1.7-11.2, read-out: 1st pKa
readout.kind: pKa

>>> observed_measurement("C[C@H]1CCN1c1nc2c(c(-c3cn4cnc(C(=O)O)c4s3)n1)CCC2")
2.87
>>> observed_measurement("C[C@H]1CCN1c1nc2c(c(-c3ccc(C4(N)CC4)cc3)n1)CCC2")
4.25
>>> observed_measurement("C[C@H]1[C@H](F)CN1c1nc(-c2ccc(C(N)CS(C)(=O)=O)cc2)c2c(n1)C(F)(F)CC2 (some centres unmarked)")
6.3
>>> observed_measurement("C[C@H]1CCN1c1nc2c(c(-c3cccc(C(N)=O)c3)n1)CCC2")
4.38
>>> observed_measurement("N#C[C@H]1CCN1c1nc(-c2ccc(C3(N)COC3)cc2)c2c(n1)C(F)(F)CC2")
6.3

[a] COc1ccc(-c2nc(N3C[C@@H](O)[C@@H]3C)nc3c2CCC3(F)F)cc1S(N)(=O)=O
[b] C[C@H]1[C@H](O)CN1c1nc(-c2ccc([C@]3(N)CCS(=O)(=O)C3)cc2)c2c(n1)C(F)(F)CC2 (single isomer, unassigned)
// pick min by pKa: a , b // output: label of the selected item a
(a: 1.7, b: 4.9)

[I] COc1ccc(-c2nc(N3C[C@@H](O)[C@@H]3C)nc3c2CCC3(F)F)cc1[S@@](C)(=N)=O (single isomer, unassigned)
[II] NC1(c2ccc(-c3nc(N4CC[C@@H]4CF)nc4c3CCC4(F)F)cc2)COC1
[III] C[C@H]1CCN1c1nc2c(c(-c3ccc(C4(N)COC4)cc3)n1)CCC2
[IV] C[C@H]1CCN1c1nc2c(c(-c3ccccn3)n1)CCC2
Sort (4 molecules) by pKa: min first. The reply should contain the labels ordered as requested. IV, I, III, II

---

# tested.system: human KHK-C (Homo sapiens (Human), UniProt P50053)
# Sequence (P50053 whole entry): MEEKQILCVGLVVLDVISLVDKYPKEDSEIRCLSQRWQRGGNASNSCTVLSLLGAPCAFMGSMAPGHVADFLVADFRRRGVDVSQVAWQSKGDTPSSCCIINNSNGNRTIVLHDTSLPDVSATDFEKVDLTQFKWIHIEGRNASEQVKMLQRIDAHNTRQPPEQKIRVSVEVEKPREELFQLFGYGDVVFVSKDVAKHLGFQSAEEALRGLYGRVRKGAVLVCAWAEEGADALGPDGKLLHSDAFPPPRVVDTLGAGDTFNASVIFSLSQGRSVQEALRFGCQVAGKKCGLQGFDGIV
# assay.remarks: KHK Biochemical Assay (IC50), ADP-Glo, KHK-C
# recorded.conditions: average of at least two separate assays
readout.kind: IC50 (nM)

Reference set, count: 4
>>> observed_measurement("C[C@H]1CCN1c1nc2c(c(-c3cn(C4COC4)nn3)n1)CCC2")
254
>>> observed_measurement("COc1ccc(-c2nc(N3C[C@@H](O)[C@@H]3C)nc3c2CCC3(F)F)cc1S(N)(=O)=O")
3
>>> observed_measurement("C[C@H]1[C@H](O)CN1c1nc(-c2ccc3c(c2)OCC32CN(CCO)C(=O)N2)c2c(n1)C(F)(F)CC2 (some centres unmarked)")
0.2
>>> observed_measurement("C[C@H]1[C@H](O)CN1c1nc(-c2ccc(OC3CC3)c([S@](C)(=N)=O)c2)c2c(n1)C(F)(F)CC2 (single isomer, unassigned)")
10.6

[A] C[C@H]1[C@H](O)CN1c1nc(-c2ccc3c(c2)CCC32COCC(=O)N2)c2c(n1)C(F)(F)CC2 (some centres unmarked)
[B] COC[C@H]1CCN1c1nc(-c2ccc(C3(N)COC3)cc2)c2c(n1)C(F)(F)CC2
// pick min by IC50: A , B // output: label of the selected item A

---

Listed next: entries and their corresponding pEC50.
# Test system: HepG2 cells
# assay.remarks: F1P Cell-Based Assay (EC50), 13C6-fructose-1-phosphate in HepG2 cells (cell culture medium or 50% human plasma)
# recorded.conditions: Homo sapiens, HepG2, read-out: F1P 10% FBS EC50
Expect pEC50 as a plain number equal to -log10 of the molar concentration.

>>> observed_measurement("C[C@H]1[C@H](O)CN1c1nc(-c2ccc3c(c2)CCS3(=N)=O)c2c(n1)C(F)(F)CC2 (some centres unmarked)")
7.10
>>> observed_measurement("NC1(c2ccc(-c3nc(N4CC[C@@H]4C(F)F)nc4c3CCC4(F)F)cc2)COC1 (single isomer, unassigned)")
8.12
>>> observed_measurement("C[C@H]1[C@H](O)CN1c1nc(-c2ccc3c(c2)CCNC3)c2c(n1)C(F)(F)CC2")
8.39

Returns the measured pEC50 for the input compound. Input: C[C@H]1[C@H](O)CN1c1nc(-c2cc(F)cc(S(C)(=N)=O)c2)c2c(n1)C(F)(F)CC2 (some centres unmarked) 6.78

Returns the measured pEC50 for the input compound. Input: C[C@H]1[C@H](O)CN1c1nc(-c2ccc3c(c2)S(=N)(=O)CCNC3)c2c(n1)C(F)(F)CC2 (some centres unmarked) 7.42

---

# tested.system: human KHK-C (Homo sapiens (Human), UniProt P50053)
# assay.remarks: KHK Biochemical Assay (IC50), ADP-Glo, KHK-C
# recorded.conditions: average of at least two separate assays
pIC50: −log10 of the molar value.
readout.kind: pIC50

>>> observed_measurement("C[C@H]1[C@H](O)CN1c1nc(-c2ccc([C@@]3(N)CCOC3)cc2)c2c(n1)C(F)(F)CC2 (single isomer, unassigned)")
9.00
>>> observed_measurement("COc1c(F)cc(-c2nc(N3C[C@@H](O)[C@@H]3C)nc3c2CCC3(F)F)cc1[S@](C)(=N)=O (single isomer, unassigned)")
7.67
>>> observed_measurement("C[C@H]1[C@H](O)CN1c1nc(-c2ccc3c(c2)C(C)(C)CC3NS(C)(=O)=O)c2c(n1)C(F)(F)CC2 (stereo partly drawn)")
8.62
>>> observed_measurement("C[C@H]1[C@@H](F)CN1c1nc(-c2ccc(C3(N)COC3)cc2)c2c(n1)C(F)(F)CC2 (stereo in doubt)")
8.60

[a] C[C@H]1CCN1c1nc(-c2ccc(C3(N)CC(F)(F)C3)cc2)c2c(n1)C(F)(F)CC2
[b] C[C@H]1[C@H](O)CN1c1nc(-c2ccc3c(c2)S(=N)(=O)CC3)c2c(n1)C(F)(F)CC2 (stereo partly drawn)
// pick min by pIC50: a , b // output: label of the selected item b
(b: 8.52, a: 8.92)
